# system: DCN1-UBE2M interaction (Homo sapiens)
# Sequence (Q96GG9 whole entry): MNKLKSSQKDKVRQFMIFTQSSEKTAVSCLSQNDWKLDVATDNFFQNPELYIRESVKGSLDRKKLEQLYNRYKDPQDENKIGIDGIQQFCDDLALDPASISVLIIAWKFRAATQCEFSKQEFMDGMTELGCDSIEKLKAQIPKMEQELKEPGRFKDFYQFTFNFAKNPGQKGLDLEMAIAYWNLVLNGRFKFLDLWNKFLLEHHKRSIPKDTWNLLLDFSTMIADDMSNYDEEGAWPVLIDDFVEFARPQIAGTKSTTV
# assay.info: biochemical
# Assay type: binding
# condition: maximum tested concentration 15 μM; values in Supplementary Tables
experimental.endpoint: Activity in TR-FRET binding assay, in words

• Cc1cccc(NC(=O)[C@@H]2C(=O)Nc3c(c(C)nn3-c3ccccc3)[C@@H]2c2ccc(F)cc2)c1 = not tolerated
• Cc1nn(-c2ccccc2)c2c1[C@H](c1ccc(F)cc1)[C@H](C(=O)Nc1ccc(Cl)c(Cl)c1)C(=O)N2 = not tolerated

* * *

# system: DCN1-UBE2M interaction (Homo sapiens)
# assay.info: biochemical
experimental.endpoint: IC50 (µM)
Answer in µM, number only, no unit symbol.

What value of measured IC50 is listed for Cc1nn(-c2ccccc2)c2c1[C@H](c1ccc(F)cc1)[C@H](NC(=O)c1cccc(C(F)(F)F)c1)C(=O)N2 ?
3.5

* * *

Listing of recorded CLint scaled at 0.8 µM by entry.
# assay.info: Oxidative metabolic stability in murine microsomes
# condition: mouse, microsomes
Provide the reading as a plain figure in mL/min/kg.

* Cc1cccc(C(=O)N[C@@H]2C(=O)Nc3c(c(C)nn3-c3ccccc3)[C@@H]2c2ccc(F)cc2)c1 (racemic) | 50.3
* CCN1C(=O)[C@@H](NC(=O)c2cccc(C)c2)[C@@H](c2ccc(F)cc2)c2c(C)nn(-c3ccccc3)c21 (relative stereo) | 44.9

So what's the measured CLint scaled at 0.8 µM for this one? CCn1nc(C)c2c1NC(=O)[C@@H](NC(=O)c1cccc(C)c1)[C@H]2c1ccc(F)cc1 (racemic)
89.7

Recorded CLint scaled at 0.8 µM of Cc1cccc(C(=O)N[C@@H]2C(=O)Nc3c(c(C)nn3C3CCCC3)[C@@H]2c2ccc(F)cc2)c1 (racemic) , please.
116

CLint scaled at 0.8 µM for Cc1ccc([C@H]2c3c(C)nn(-c4ccccc4)c3NC(=O)[C@H]2NC(=O)c2cccc(C)c2)cc1 (relative stereo) ?
160
